Data origin, for the record: paper PMC9518248

# System: T. gondii RH-GFP
# Test details: Antiparasitic assay: T. gondii RH-GFP proliferation in Hs27 cells
# Type: cell-based, Toxoplasma gondii
# Condition context: selectivity index, CC30 (L929)/IC50Tg
Task for the reader: assign each of the following molecules its reported SI.
Enter a number only.

[in] Please give the measured SI for this molecule: CC(=O)c1cccc(-n2c(-c3[nH]cnc3C)n[nH]c2=S)c1 [23b]
[out] 17.79

[in] Please give the measured SI for this molecule: Cc1nc[nH]c1-c1n[nH]c(=S)n1-c1cccc(I)c1 [11b]
[out] 17.16

[in] Please give the measured SI for this molecule: Cc1cccc(-n2c(-c3[nH]cnc3C)n[nH]c2=S)c1 [15b]
[out] 7.33

[in] Please give the measured SI for this molecule: Cc1nc[nH]c1-c1n[nH]c(=S)n1-c1cccc(F)c1
[out] 24.26

[in] Please give the measured SI for this molecule: COc1ccc(-n2c(-c3[nH]cnc3C)n[nH]c2=S)cc1OC [21b]
[out] 2.29

[in] Please give the measured SI for this molecule: Cc1ccc(-n2c(-c3[nH]cnc3C)n[nH]c2=S)cc1Cl [17b]
[out] 2.37

[in] Please give the measured SI for this molecule: Cc1nc[nH]c1-c1n[nH]c(=S)n1-c1ccccc1Cl
[out] 2.03

[in] Please give the measured SI for this molecule: Cc1nc[nH]c1-c1n[nH]c(=S)n1-c1ccc(F)cc1
[out] 0.55

[in] Please give the measured SI for this molecule: Cc1nc[nH]c1-c1n[nH]c(=S)n1-c1c(C(C)C)cccc1C(C)C [24b]
[out] 2.35

[in] Please give the measured SI for this molecule: Cc1nc[nH]c1-c1n[nH]c(=S)n1-c1ccccc1I [10b]
[out] 12.73

[in] Please give the measured SI for this molecule: Cc1nc[nH]c1-c1n[nH]c(=S)n1-c1ccc(Br)cc1
[out] 1.48

[in] Please give the measured SI for this molecule: Nc1ccc(S(=O)(=O)Nc2ncccn2)cc1
[out] 0.44

[in] Please give the measured SI for this molecule: Cc1ccccc1-n1c(-c2[nH]cnc2C)n[nH]c1=S [14b]
[out] 31.23

[in] Please give the measured SI for this molecule: Cc1nc[nH]c1-c1n[nH]c(=S)n1-c1ccc(I)cc1 [12b]
[out] 4.88

[in] Please give the measured SI for this molecule: CCc1nc(N)nc(N)c1-c1ccc(Cl)cc1
[out] 6.34

[in] Please give the measured SI for this molecule: Cc1nc[nH]c1-c1n[nH]c(=S)n1-c1cccc(Br)c1
[out] 6.41

[in] Please give the measured SI for this molecule: COc1ccc(-n2c(-c3[nH]cnc3C)n[nH]c2=S)cc1 [20b]
[out] 70.72

[in] Please give the measured SI for this molecule: Cc1nc[nH]c1-c1n[nH]c(=S)n1-c1cc(F)ccc1F [13b]
[out] 11.14

[in] Please give the measured SI for this molecule: COc1cc(Cc2cnc(N)nc2N)cc(OC)c1OC [TRI, trimethoprim, reference compound]
[out] 16.07

[in] Please give the measured SI for this molecule: Cc1nc[nH]c1-c1n[nH]c(=S)n1-c1ccccc1F
[out] 5.78

[in] Please give the measured SI for this molecule: Cc1ccc(-n2c(-c3[nH]cnc3C)n[nH]c2=S)cc1 [16b]
[out] 10.11

[in] Please give the measured SI for this molecule: Cc1nc[nH]c1-c1n[nH]c(=S)n1-c1ccccc1Br
[out] 31.72

[in] Please give the measured SI for this molecule: Cc1nc[nH]c1-c1n[nH]c(=S)n1Cc1ccccc1 [27b]
[out] 2.87

[in] Please give the measured SI for this molecule: Cc1nc[nH]c1-c1n[nH]c(=S)n1-c1ccc(N(C)C)cc1 [25b]
[out] 2.65

[in] Please give the measured SI for this molecule: CCN(CC)c1ccc(-n2c(-c3[nH]cnc3C)n[nH]c2=S)cc1 [26b]
[out] 1.47

[in] Please give the measured SI for this molecule: CCOc1ccc(-n2c(-c3[nH]cnc3C)n[nH]c2=S)cc1 [22b]
[out] 29.33

[in] Please give the measured SI for this molecule: Cc1nc[nH]c1-c1n[nH]c(=S)n1-c1cccc(Cl)c1
[out] 2.32

[in] Please give the measured SI for this molecule: Cc1nc[nH]c1-c1n[nH]c(=S)n1-c1ccc(Cl)cc1
[out] 1.73
